Measured values drawn from patent US9771369B2 for this set.

MEASURED ON: c-Kit kinase (Homo sapiens (Human))
Sequence (P10721 26-976): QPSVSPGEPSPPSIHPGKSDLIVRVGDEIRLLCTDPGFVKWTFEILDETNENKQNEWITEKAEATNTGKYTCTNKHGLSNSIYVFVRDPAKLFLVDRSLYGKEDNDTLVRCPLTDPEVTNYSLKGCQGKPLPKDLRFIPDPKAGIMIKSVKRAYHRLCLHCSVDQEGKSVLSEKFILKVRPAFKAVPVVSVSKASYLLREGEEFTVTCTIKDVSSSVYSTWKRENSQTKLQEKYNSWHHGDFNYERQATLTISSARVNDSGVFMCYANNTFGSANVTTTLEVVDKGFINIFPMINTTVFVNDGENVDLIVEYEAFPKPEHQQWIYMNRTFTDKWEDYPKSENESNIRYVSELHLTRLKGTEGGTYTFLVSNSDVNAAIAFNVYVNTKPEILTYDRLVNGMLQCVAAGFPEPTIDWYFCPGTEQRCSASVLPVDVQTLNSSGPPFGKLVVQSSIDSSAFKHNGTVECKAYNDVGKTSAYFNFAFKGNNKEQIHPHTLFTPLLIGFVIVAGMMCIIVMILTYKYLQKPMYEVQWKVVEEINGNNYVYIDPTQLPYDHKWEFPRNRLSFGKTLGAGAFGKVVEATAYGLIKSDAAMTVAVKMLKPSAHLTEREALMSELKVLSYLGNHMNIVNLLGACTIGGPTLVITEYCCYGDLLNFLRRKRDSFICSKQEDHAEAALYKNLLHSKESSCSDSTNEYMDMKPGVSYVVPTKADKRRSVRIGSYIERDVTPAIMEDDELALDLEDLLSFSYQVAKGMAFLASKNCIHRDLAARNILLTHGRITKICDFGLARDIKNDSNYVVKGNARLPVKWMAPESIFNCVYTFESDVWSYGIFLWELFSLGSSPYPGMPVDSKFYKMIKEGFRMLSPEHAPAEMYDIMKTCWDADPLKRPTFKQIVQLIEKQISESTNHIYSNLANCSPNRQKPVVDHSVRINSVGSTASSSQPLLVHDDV
PROTOCOL TEXT: c-Kit biochemical assay (AlphaScreen kinase activity)
ENDPOINT: IC50

Recorded results for 8 molecules are shown here.
Cc1nc(C2(C)CCN(c3ncnc4[nH]c(-c5ccc(NS(C)(=O)=O)cc5)cc34)CC2)[nH]c1-c1ccc(OC(F)F)cc1 0.0001 to 1 µM
Cc1nc(C2CCN(c3ncnc4[nH]c(-c5ccc(C#N)cc5)cc34)CC2)[nH]c1-c1ccc(Cl)cc1 0.0001 to 1 µM
CCOc1ccc(-c2[nH]c(C3(C)CCN(c4ncnc5[nH]c(-c6cnn(C(F)F)c6)cc45)CC3)nc2C)cc1C 0.0001 to 1 µM
Cc1cc2c(N3CCC(C)(c4nc(C)c(-c5ccc(C(F)(F)F)cc5)[nH]4)CC3)ncnc2[nH]1 1 to 10 µM
COc1cc(-c2cc3c(N4CCC(c5nc(C)c(-c6ccc(C)cc6)[nH]5)CC4)ncnc3[nH]2)ccn1 0.0001 to 1 µM
Cc1nc(C2CCN(c3ncnc4[nH]c(-c5cnn(C(F)F)c5)cc34)CC2)[nH]c1-c1ccc2c(c1)OCCO2 0.0001 to 1 µM
CCC1(c2nc(C)c(-c3ccc4c(c3)OCO4)[nH]2)CCN(c2ncnc3[nH]c(C)cc23)CC1 1 to 10 µM
COc1ccc(-c2[nH]c(C3(C)CCN(c4ncnc5[nH]nc(C)c45)CC3)nc2C)cc1F 1 to 10 µM

Now for another entry.
Could you tell me which IC50 is on file for Cc1cc2c(N3CCC(c4nc(C)c(-c5ccc6c(c5)OC(F)(F)O6)[nH]4)CC3)ncnc2[nH]1 ?
1 to 10 µM
